Values from PubChem BioAssay (NCATS)

Test system: CP286
Measurement description: qHTS profiling for inhibitors of Plasmodium falciparum proliferation (AID 504749); note: nearly all actives have a fitted effect of over 60% in size
Condition set: P. falciparum in erythrocytes, SYBR Green DNA, 72 h; series mostly up to 28.7 µM
Procedure: NIH National Institute of Allergy and Infectious Diseases [NIAID] NIH Chemical Genomics Center [NCGC] […] Because mature erythrocytes lack DNA, only Plasmodium-derived DNA is detected. NCGC Assay Protocol Summary: The SYBR Green viability assay was adapted from a method described previously (Plouffe et al., 2008). […] The following morning, fluorescence intensity at 485(14) nm excitation and 535(25) nm emission wavelengths was measured on an EnVision (Perkin Elmer) plate reader. […]
Inconclusive results are not listed. The source made the active and inactive calls. Calls come from the whole dose curve; as a rule, active = well fitted inhibition curve with a large enough effect; inconclusive = small, poorly fitted or top-dose-only effect; inactive = flat fitted curve, though single readings scatter.
Output constraint: value belongs to true (1) for active, false (0) for inactive

Completed entries (count: 6):
Compound | Classification
Oc1ccc(Cl)cc1Cc1cc(Cl)ccc1O | false (0)
O=C(NCCc1c[nH]c2ccccc12)c1cccnc1 | false (0)
COc1cc(C)nc(-n2nc(C)cc2OC)n1 | false (0)
CCOc1cc(OCC)c(C(=O)CCC(=O)O)cc1OCC | false (0)
C[C@@H](O)[C@H]1C(=O)N2C(C(=O)O)=C(S[C@@H]3CN[C@H](CNS(N)(=O)=O)C3)[C@H](C)[C@H]12 | false (0)
CN(C)CCC[C@@]1(c2ccc(F)cc2)OCc2cc(C#N)ccc21 | false (0)

// query Just curious, what result did O=C1C(=O)c2ccccc2C(O)=C1C1CCC(c2ccc(Cl)cc2)CC1 (stereo not drawn) get here?
// result true (1)

// query Just curious, what result did CN1CCc2cccc3c2[C@H]1Cc1ccc(O)c(O)c1-3 get here?
// result true (1)

// query Just curious, what result did COc1ccc(CN(CCN(C)C)c2ncccn2)cc1 get here?
// result false (0)

// query Just curious, what result did CCOC(=O)Nc1ccc2c(c1)N(C(=O)CCN1CCOCC1)c1ccccc1S2 get here?
// result false (0)

// query Just curious, what result did CCCCC(CC)COC(=O)/C=C/c1ccc(OC)cc1 (stereo not drawn) get here?
// result false (0)

// query Just curious, what result did CCCCCCCC/C=C\CCCCCCCCN get here?
// result false (0)

// query Just curious, what result did O=C(O)C1(C(=O)O)CCC1.[NH2-].[NH2-].[Pt+2] get here?
// result false (0)

// query Just curious, what result did CC(=O)Nc1ccc(OC(=O)c2ccccc2OC(C)=O)cc1 get here?
// result false (0)

// query Just curious, what result did COP(=O)(OC)OC(c1ccc(Cl)cc1)P(=O)(OC)OC (stereo not drawn) get here?
// result false (0)

// query Just curious, what result did COc1cc(C(=O)NCc2ccc(OCCN(C)C)cc2)cc(OC)c1OC get here?
// result false (0)

// query Just curious, what result did Cc1ccc(-c2ncc(Cl)cc2-c2ccc(S(C)(=O)=O)cc2)cn1 get here?
// result false (0)

// query Just curious, what result did CC(=O)OC[C@H]1O[C@@H](n2ncc(=O)[nH]c2=O)[C@H](OC(C)=O)[C@@H]1OC(C)=O get here?
// result false (0)

---

Tested on: Zika virus NS2B-NS3 protease
Measurement description: Primary screen GU AMC qHTS for Zika virus inhibitors (AID 1347154); note: nearly all actives have a fitted effect of over 70% in size
Condition set: Zika NS2B-NS3 unlinked protease, AMC fluorogenic substrate; series mostly up to 54.1 µM
Text: Avindra Nath, Ph.D., National Institute of Neurological Disorders and Stroke (NINDS), Bethesda, MD Radhakrishnan Padmanabhan, Ph.D., Georgetown University (GU), Washington D.C. Zika Virus causes congenital defects, including microcephaly and is associated with Guillain-Barre syndrome, eningoencephalitis and myelitis in infected adult. […]
Records with an inconclusive call do not appear. The source made the active and inactive calls. Calls come from the whole dose curve; as a rule, active = well fitted inhibition curve with a large enough effect; inconclusive = small, poorly fitted or top-dose-only effect; inactive = flat fitted curve, though single readings scatter.
Output constraint: value belongs to active, inactive

Compound | Classification
CN(CCCN1c2ccccc2CCc2ccccc21)CC(=O)c1ccc(Cl)cc1 | inactive
OCCOCCN1CCN(C2=Nc3ccccc3Sc3ccccc32)CC1 | inactive
CC1(C)OC[C@@H]2O[C@@]3(C(=O)O)OC(C)(C)O[C@H]3[C@@H]2O1 | inactive
Cc1cn([C@H]2C[C@H](F)[C@@H](CO)O2)c(=O)[nH]c1=O | inactive

// query Just curious, what result did CC(=O)Oc1ccc(C)cc1 get here?
// result inactive

// query Just curious, what result did O=c1[nH]c(=O)n([C@H]2C[C@H](O)[C@@H](CO)O2)cc1F get here?
// result inactive

// query Just curious, what result did Cn1c(=O)c2[nH]c(Br)nc2n(C)c1=O get here?
// result inactive

// query Just curious, what result did CC(O)Cn1cnc2c1c(=O)n(C)c(=O)n2C (configuration not stated) get here?
// result inactive

// query Just curious, what result did CC1=C(C(=O)O)N2C(=O)[C@@H](NC(=O)[C@H](N)c3ccccc3)[C@H]2SC1 get here?
// result inactive

// query Just curious, what result did CCc1oc2ccccc2c1C(=O)c1cc(I)c(O)c(I)c1 get here?
// result active

// query Just curious, what result did CC[N+](C)(CC)CCOC(=O)C(O)(c1ccccc1)C1CCCCC1 (configuration not stated) get here?
// result inactive

// query Just curious, what result did CC(=O)O[C@H]1C[C@@H]2CC[C@@H]3[C@H](CC[C@@]4(C)[C@H]3C[C@H]([N+]3(C)CCCCC3)[C@@H]4OC(C)=O)[C@@]2(C)C[C@@H]1N1CCCCC1 get here?
// result inactive

// query Just curious, what result did COc1cc(C(=O)NCc2ccc(OCCN(C)C)cc2)cc(OC)c1OC get here?
// result inactive

// query Just curious, what result did CC(=O)Nc1ccc(S(=O)(=O)Nc2ccc([N+](=O)[O-])cc2)cc1 get here?
// result inactive

// query Just curious, what result did COc1cc(C(=O)N2CCCCCCC2)cc(OC)c1OC get here?
// result inactive

// query Just curious, what result did CC(C)CCCC(C)N (configuration not stated) get here?
// result inactive

// query Just curious, what result did Cc1cc2c(OCC(CNC(C)(C)C)OC(=O)c3ccccc3)cccc2[nH]1 (configuration not stated) get here?
// result inactive

---

Test system: GB4
Measurement description: qHTS profiling for inhibitors of Plasmodium falciparum proliferation (AID 504749); note: nearly all actives have a fitted effect of over 60% in size
Condition set: P. falciparum in erythrocytes, SYBR Green DNA, 72 h; series mostly up to 28.7 µM
Results filed as inconclusive are left out. Calls of active or inactive are those of the source. Calls follow the shape of the dose curve; as a rule, active = well fitted inhibition curve with a large enough effect; inconclusive = small, poorly fitted or top-dose-only effect; inactive = flat fitted curve, though single readings scatter.
Output constraint: value belongs to 1 for active, 0 for inactive

Completed entries (count: 2):
Mol | Classification
O[C@@H](c1cc(C(F)(F)F)nc2c(C(F)(F)F)cccc12)[C@H]1CCCCN1 | 1
O=C(O)CCNC(=O)c1ccccc1 | 0

// query Just curious, what result did CN1CCN(c2c(F)cc3c(=O)c(C(=O)O)cn4c3c2SCC4)CC1 get here?
// result 0

---

System: P94_40
Measurement description: qHTS profiling for inhibitors of Plasmodium falciparum proliferation (AID 504749); note: nearly all actives have a fitted effect of over 60% in size
Condition set: P. falciparum in erythrocytes, SYBR Green DNA, 72 h; series mostly up to 28.7 µM
Results filed as inconclusive are left out. Active and inactive are the calls of the source. Calls follow the shape of the dose curve; as a rule, active = well fitted inhibition curve with a large enough effect; inconclusive = small, poorly fitted or top-dose-only effect; inactive = flat fitted curve, though single readings scatter.
Output constraint: value belongs to active, inactive

Completed entries (count: 3):
Compound | Classification
Cc1cccc(C)c1NC(=O)CN1CCCCCC1 | inactive
NS(=O)(=O)c1cc(C(=O)O)cc(N2CCCC2)c1Oc1ccccc1 | inactive
O=C(O)P(=O)(O)O | inactive

// query Just curious, what result did Cc1cc(C)cc(OCC2CNC(=O)O2)c1 (stereo not drawn) get here?
// result inactive

// query Just curious, what result did CCCc1ncc(C[n+]2ccccc2C)c(N)n1 get here?
// result inactive

---

Tested on: CP335
Measurement description: qHTS profiling for inhibitors of Plasmodium falciparum proliferation (AID 504749); note: nearly all actives have a fitted effect of over 60% in size
Condition set: P. falciparum in erythrocytes, SYBR Green DNA, 72 h; series mostly up to 28.7 µM
Records with an inconclusive call do not appear. Active and inactive are the calls of the source. The call rests on the fitted dose curve; in most records, active means well fitted inhibition curve with a large enough effect; inconclusive means small, poorly fitted or top-dose-only effect; inactive means flat fitted curve, though single readings scatter.
Output constraint: value belongs to true (1) (active), false (0) (inactive)

Compound | Tested target | Classification
CCCCCCCCNC(C)C(O)c1ccc(SC(C)C)cc1 (centres undefined) | CP335 | true (1)
CCCCCCCCCCCCCCCC(=O)O | CP335 | false (0)
CCOc1ccccc1OCCN[C@H](C)Cc1ccc(OC)c(S(N)(=O)=O)c1 | CP335 | false (0)

// query Just curious, what result did NS(=O)(=O)Cc1noc2ccccc12 get here?
// result false (0)

// query Just curious, what result did Cc1ccc(S(=O)(=O)NC(=O)NC2CCCC2)cc1 get here?
// result false (0)

// query Just curious, what result did COc1cc(N)c(Cl)cc1C(=O)NC1CCN(Cc2ccccc2)CC1 get here?
// result false (0)

// query Just curious, what result did O=C(O)Cc1csc(-c2ccc(Cl)cc2)n1 get here?
// result false (0)

// query Just curious, what result did Cc1ccc(O)c([C@H](CCN(C(C)C)C(C)C)c2ccccc2)c1 get here?
// result true (1)

// query Just curious, what result did Cn1c(=O)c2[nH]c(Br)nc2n(C)c1=O get here?
// result false (0)
